Target: Tyrosine-protein phosphatase non-receptor type 1 (Homo sapiens, UniProt P18031)
Sequence (P18031 whole entry, the tested form may be a part): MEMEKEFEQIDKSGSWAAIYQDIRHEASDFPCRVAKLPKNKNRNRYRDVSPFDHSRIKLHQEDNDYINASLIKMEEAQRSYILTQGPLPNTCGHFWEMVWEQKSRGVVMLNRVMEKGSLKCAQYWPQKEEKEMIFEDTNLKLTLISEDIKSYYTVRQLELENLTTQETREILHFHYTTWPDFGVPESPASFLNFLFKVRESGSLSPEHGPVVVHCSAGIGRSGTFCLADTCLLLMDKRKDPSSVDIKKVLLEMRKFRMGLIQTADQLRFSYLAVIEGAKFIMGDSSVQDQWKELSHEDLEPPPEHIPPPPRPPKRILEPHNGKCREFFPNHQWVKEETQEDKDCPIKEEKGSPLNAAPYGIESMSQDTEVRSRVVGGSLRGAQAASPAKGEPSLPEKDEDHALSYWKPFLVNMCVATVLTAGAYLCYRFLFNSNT
Test: Inhibition of recombinant PTP1B catalytic domain (unknown origin) using pNPP as substrate
Recorded Endpoint: IC50 (µM)

{"Smiles Text": "C=C1[C@H]2C[C@H](O)C(C)(C)[C@@]2(O)[C@H](O)C[C@]23C[C@@](C)(O)[C@H](CC[C@@H]12)[C@H]3O", "Study System": "Tyrosine-protein phosphatase non-receptor type 1 (Homo sapiens, UniProt P18031)", "Recorded Endpoint": "IC50", "Endpoint Value": 24.5}
{"Smiles Text": "C=C1[C@H]2C[C@H](O)C(C)(C)[C@@]2(O)[C@H](O)C[C@]23C=C(C)[C@H](CC[C@@H]12)[C@H]3O", "Study System": "Tyrosine-protein phosphatase non-receptor type 1 (Homo sapiens, UniProt P18031)", "Recorded Endpoint": "IC50", "Endpoint Value": 3.14}
